Origin of measurements: patent US20250026849A1

Below, each entry is listed with its recorded ELISA_avg.
# target: T1, BCMA (Homo sapiens (Human), UniProt Q02223 1-54, limits assumed)
# T1 sequence: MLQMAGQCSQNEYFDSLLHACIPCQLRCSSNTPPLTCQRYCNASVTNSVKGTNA
# method summary: ELISA, format not described
# Set-up: unit not given here
Could you respond with only the numeric value?

Consider the worked cases shown below.
• D-domain SEQ ID NO: 81 (designed binder) MGSWAEFYHRLDAISSRLRALGGSEAELAAFEKEIAAFESELQAYKGKGNPEVEELRYTAALIRIYLQAYRHN = 4.31
• D-domain SEQ ID NO: 132 (designed binder) MGSWVEFDRRLVAIYIRLWALGGSEAELAAFEKEIAAFESELQAYKGKGNPEVEALRDDAALIRLLLQAYRHN = 8.93

Now look at this one.
stdin: Entry D-domain SEQ ID NO: 296 (designed binder) MGSWFSFKHHLAVIKWNLEALGGSEAELASFEEQIAEFESVLQAYKGKGNPEVEALRKEAAAIRDELQAYRHN needs its ELISA_avg filled in; supply it.
stdout: 6.45
